Test system: A2780
Assay: Cellular proliferation assay (Alamar blue), A2780
Type: cell-based
Conditions: Homo sapiens, 10% FCS, 72 hours with compound, Alamar blue 24 h, read-out: A2780 (cellular proliferation assay, Table 4) (converted)
# strict inequality: IC50 < 9 µM yields MET, everything else yields NOT MET

Asked: Confirm or reject: IC50 of O=C1NCc2cccc(c2)-c2ccnc(n2)Nc2ccc(cc2)CN2CCC[C@@H]12 lies strictly below 9 µM
Given back: NOT MET

Asked: Confirm or reject: IC50 of O=C1NCc2cccc(c2)-c2ccnc(n2)Nc2ccc(N3CCOCC3)c(c2)CN2CCC1CC2 lies strictly below 9 µM
Given back: NOT MET

Asked: Confirm or reject: IC50 of CN1CCNC(=O)C2CCN(CC2)Cc2cc(Br)cc(c2)Nc2nccc(n2)-c2ccc(cc2)C1 lies strictly below 9 µM
Given back: MET

Asked: Confirm or reject: IC50 of COc1ccc2cc1CN(C)CCNC(=O)[C@H](C)NCc1cc(ccc1N1CCOCC1)Nc1nccc-2n1 lies strictly below 9 µM
Given back: NOT MET

Asked: Confirm or reject: IC50 of COc1ccc2cc1CNCCCNC(=O)[C@@H]1C[C@@H](O)CN1Cc1cc(ccc1N1CCOCC1)Nc1nccc-2n1 lies strictly below 9 µM
Given back: NOT MET

Asked: Confirm or reject: IC50 of O=C1NCCCOc2cccc(c2)-c2ccnc(n2)Nc2ccc(N3CCOCC3)c(c2)CN2CCC1CC2 lies strictly below 9 µM
Given back: MET

Asked: Confirm or reject: IC50 of CN1CCCNC(=O)[C@@H]2CCCN2Cc2cc(cc(N3CCOCC3)c2)Nc2nccc(n2)-c2ccc(cc2)C1 lies strictly below 9 µM
Given back: NOT MET

Asked: Confirm or reject: IC50 of O=C1NCCNc2cc(ccn2)-c2ccnc(n2)Nc2ccc(N3CCOCC3)c(c2)CN2CCC1CC2 lies strictly below 9 µM
Given back: NOT MET

Asked: Confirm or reject: IC50 of COc1ccc2cc1CN(C)CCNC(=O)[C@@H]1CCCN1Cc1cc(cc(N3CCOCC3)c1)Nc1nccc-2n1 lies strictly below 9 µM
Given back: NOT MET

Asked: Confirm or reject: IC50 of CN1CCNC(=O)[C@H](CO)NCc2cc(Br)cc(c2)Nc2nccc(n2)-c2ccc(cc2)C1 lies strictly below 9 µM
Given back: NOT MET

Asked: Confirm or reject: IC50 of O=C1NCc2cccc(c2)-c2ccnc(n2)Nc2cc(ccc2Cl)CN[C@H]1CO lies strictly below 9 µM
Given back: NOT MET

Asked: Confirm or reject: IC50 of C[C@@H]1NCc2cccc(c2)Nc2nccc(n2)-c2cccc(c2)CNC1=O lies strictly below 9 µM
Given back: MET

Asked: Confirm or reject: IC50 of COc1cc2cc(c1OC)CNC(=O)[C@@H]1CCCN1Cc1cccc(c1)-c1ccnc(n1)N2 lies strictly below 9 µM
Given back: NOT MET

Asked: Confirm or reject: IC50 of CN1CCCNC(=O)C2CCN(CC2)Cc2cc(cc(N3CCOCC3)c2)Nc2nccc(n2)-c2ccc(cc2)C1 lies strictly below 9 µM
Given back: NOT MET

Asked: Confirm or reject: IC50 of CC1(C)NCc2cc(ccc2N2CCOCC2)Nc2nccc(n2)-c2cccc(c2)OCCCNC1=O lies strictly below 9 µM
Given back: MET

Values were extracted from patent US8609836B2.
